# System: PRC2-mediated histone H3 methylation
# ASSAY_EXPLANATION: Tri-Methyl Histone H3 (Lys 27) Sandwich ELISA in Pfeiffer cells: inhibition of PRC2-mediated histone H3 methylation
# Assay type: cell-based, human
# MEASUREMENT_SETUP: Homo sapiens; Inhibition of EZH2-mediated histone H3 trimethylation; Pfeiffer cells (EZH2 A677G), 96 hours incubation
PROPERTY_NAME: IC50

MOLECULE	PROPERTY_NAME	MEASUREMENT
N#Cc1cn2c(NCc3c(F)ccc4c3CCO4)ncc(-c3ccc4c(c3)CNC4)c2n1 [Example 205]	IC50	≤ 100 nM
N#Cc1cn2c(NCc3c(F)ccc4c3CCO4)ncc(-c3ccc(C4CCCN4)cc3)c2n1 (stereo not drawn) [Example 204]	IC50	≤ 100 nM
N#Cc1cn2c(NCc3c(F)ccc4c3CCO4)ncc(-c3ccc(C(=O)O)cc3)c2n1 [Example 183]	IC50	> 500 nM
N#Cc1cn2c(NCc3c(F)ccc4c3CCO4)ncc(-c3cnn4c3CCC4)c2n1 [Example 80]	IC50	100 to 500 nM
Cc1ccc(C#N)cc1-c1cnc(NCc2c(F)ccc3c2CCO3)n2cc(C#N)nc12 [Example 177]	IC50	100 to 500 nM
N#Cc1cn2c(NCc3c(F)ccc4c3CCO4)ncc(-c3ccc(C4CC(=O)N4)cc3)c2n1 (stereo not drawn) [Example 222]	IC50	≤ 100 nM
N#Cc1cn2c(NCc3c(F)ccc4c3CCO4)ncc(-c3ccnn3C3CC3)c2n1 [Example 193]	IC50	100 to 500 nM
N#Cc1cn2c(NCc3c(F)ccc4c3CCO4)ncc(-c3ccc(C(=O)O)nc3)c2n1 [Example 215]	IC50	> 500 nM
CN(C)Cc1cc(F)c(-c2cnc(NCc3c(F)ccc4c3CCO4)n3cc(C#N)nc23)cc1F [Example 39]	IC50	≤ 100 nM
CNCc1ccc(-c2cnc(NCc3c(F)ccc4c3CCO4)n3cc(C#N)nc23)c(C)c1 [Example 196]	IC50	100 to 500 nM
CN(C)C(=O)c1ccc(-c2cnc(NCc3c(F)ccc4c3CCO4)n3cc(C#N)nc23)cc1 [Example 180]	IC50	≤ 100 nM
CN(C)CCc1ccc(-c2cnc(NCc3c(F)ccc4c3CCO4)n3cc(C#N)nc23)cc1 [Example 163]	IC50	100 to 500 nM
